# System: HCC 2998
# testDetails: NCI tumour cell line growth inhibition, 48 h
Activity calls are given as the source filed them. Rule as the data show it: active = GI50 up to about 1.1 µM and inactive = higher.
endpointLabel: GI50

Worked examples follow.
CC(=O)n1c2c(c(=O)n1-c1ccccc1)[S+]([O-])CCC2 (centres undefined) | < 0.01 µM (active)
CC1=NOC2(C1)C(=O)Nc1ccccc12 (centres undefined) | > 100 µM (inactive)
COc1ccc(-c2ccccc2)c2[nH]c3c(c12)CCNC3=O | > 100 µM (inactive)

Quick one: GI50 for CS(=O)(=O)CC1=Nc2nnc(CCCCCCCc3nnc4n3C(=O)C(CS(C)(=O)=O)=N4)n2C1=O ? > 100 µM (inactive)

* * *

# Tested on: OVCAR-3
# testDetails: NCI tumour cell line growth inhibition, 48 h
The source made the active and inactive calls. Cut-off read from the data, not from the text of the source: active = GI50 up to about 1.1 µM and inactive = higher. Non-standard residues stand in square brackets, D forms with d. Residues, ends and D or L forms follow the SMILES beside them. ξ: configuration not given here. *: point of attachment. NMeF = CN[C@@H](Cc1ccccc1)C(=O)O; NMeN = CN[C@@H](CC(N)=O)C(=O)O; NMeV = CN[C@H](C(=O)O)C(C)C; ξNMeV = CNC(C(=O)O)C(C)C; Boc = CC(C)(C)OC(=O)*; ξNMeA = CNC(C)C(=O)O; ξV = CC(C)C(N)C(=O)O
Outcomes you can answer with include only these: yes (1) (active), no (0) (inactive)

COC(=O)/C(=C/c1ccc(OC)cc1)c1cc(OC)c(OC)c(OC)c1 | yes (1)
COC(=O)C(C)N(C)C(=O)[C@H](CC(N)=O)N(C)C(=O)[C@@H]1CCCN1C(=O)[C@H](C(C)C)N(C)C(=O)C(C(C)C)N(C)C(=O)[C@H](Cc1ccccc1)N(C)C(=O)C(NC(=O)OC(C)(C)C)C(C)C (stereo partly drawn) (Boc-[ξV][NMeF][ξNMeV][NMeV]P[NMeN][ξNMeA]-OMe) | no (0)

We next turn to a different compound, shown below.
Which outcome was entered for the compound CCC(C)c1cnc(CC(C)C)c(=O)[nH]1 (stereo not drawn) in this test? no (0)

* * *

# Tested on: OVCAR-8
# testDetails: NCI tumour cell line growth inhibition, 48 h
Calls of active or inactive are those of the source. Cut-off read from the data, not from the text of the source: active = GI50 up to about 1.1 µM and inactive = higher.
endpointLabel: GI50

CN(CCCN1CCCC1)CCCN(C)C(=O)Cc1ccc(Cl)c(Cl)c1 | 30 µM (inactive)
N#CCSc1c(-c2ccccc2)c(=O)n(-c2ccccc2)c(=S)n1-c1ccccc1 | > 100 µM (inactive)
CS(=O)(=O)O[C@H]1CN2C[C@@H](O)[C@@H](O)[C@H]2[C@H]1CO.[B] | > 100 µM (inactive)

Value wanted: GI50 (OVCAR-8) of entry Cc1cc(Cl)ccc1N1C(=O)C(=O)C(c2nc3ccccc3s2)C(=O)C1=O > 100 µM (inactive)

Value wanted: GI50 (OVCAR-8) of entry O=C1NC(=O)C(CCO)(c2ccccc2)C(=O)N1 > 100 µM (inactive)

* * *

# Tested on: DU-145
# testDetails: NCI tumour cell line growth inhibition, 48 h
Calls of active or inactive are those of the source. Rule as the data show it: active = GI50 up to about 1.1 µM and inactive = higher.
As shown below, each of these compounds has a reported GI50 value.

Worked examples follow.
C[C@]12CC[C@@H]3c4ccc(OC(=O)c5ccccc5)cc4CC[C@H]3[C@@H]1CCC2OC(=O)c1cccc2c(=O)c3ccccc3[nH]c12 (stereo partly drawn) | 19.8 µM (inactive)
C(=C\c1ccco1)/c1cccc(/C=C/c2ccco2)n1 | > 50 µM (inactive)

Lab note: next compound to report on.
Value wanted: GI50 (DU-145) of entry CN(C)CCOc1ccc(-c2c(Oc3ccc(Cl)cc3)c(=O)oc3ccccc23)cc1 10.5 µM (inactive)

Source of measurements: ChEMBL document CHEMBL1201862
